- system.name: Akt1 (Homo sapiens, UniProt P31749, S473D)
- Construct: The version of Akt used in these studies lacks the pleckstrin homology (PH) domain
- Sequence (P31749 118-480 S473D limits assumed, species assumed): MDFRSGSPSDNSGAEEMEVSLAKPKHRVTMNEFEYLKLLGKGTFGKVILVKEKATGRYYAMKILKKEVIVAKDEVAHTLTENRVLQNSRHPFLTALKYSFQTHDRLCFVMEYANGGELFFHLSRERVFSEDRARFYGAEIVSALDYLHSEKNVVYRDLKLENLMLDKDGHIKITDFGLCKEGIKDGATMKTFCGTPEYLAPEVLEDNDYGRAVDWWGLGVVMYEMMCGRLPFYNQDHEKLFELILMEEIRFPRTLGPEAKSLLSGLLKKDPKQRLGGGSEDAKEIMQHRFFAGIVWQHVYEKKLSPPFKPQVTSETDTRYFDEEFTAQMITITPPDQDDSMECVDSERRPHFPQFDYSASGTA
- experimental.details: Akt1 kinase assay, fluorescence polarization (IMAP)
- Format: biochemical
- measurement.parameters: average Akt kinase activity (IC50); read-out: Avg Akt kinase, μM (50% inhibition)
readout.name: IC50 (µM)

{"columns": ["compound", "readout.name", "measured.number"],
 "data": [
  ["N[C@]1(CNC(=O)c2ccccc2)CCN(c2ncnc3[nH]cc(Cl)c23)C1", "IC50", 0.00251],
  ["N[C@]1(CNC(=O)c2c(F)cccc2Cl)CCN(c2ncnc3[nH]cc(Cl)c23)C1", "IC50", 0.0332],
  ["N[C@]1(CNC(=O)c2ccccc2Cl)CCN(c2ncnc3[nH]cc(Cl)c23)C1", "IC50", 0.00643],
  ["Cc1c[nH]c2ncnc(N3CCC(N)(CCc4cccc(C(F)(F)F)c4)C3)c12 (stereo not drawn)", "IC50", 0.126],
  ["CCc1c[nH]c2ncnc(N3CC[C@](N)(CNC(=O)c4ccccc4F)C3)c12", "IC50", 0.000683],
  ["N[C@]1(CNC(=O)c2cccc(Cl)c2)CCN(c2ncnc3[nH]cc(Cl)c23)C1", "IC50", 0.00376],
  ["Cc1c[nH]c2ncnc(N3CC[C@](N)(CNC(=O)c4ccc(Cl)cc4)C3)c12", "IC50", 0.0114],
  ["CCc1c[nH]c2ncnc(N3CC[C@](N)(CNC(=O)c4ccccc4Cl)C3)c12", "IC50", 0.0147],
  ["CCc1c[nH]c2ncnc(N3CC[C@](N)(CNC(=O)c4ccc(F)cc4F)C3)c12", "IC50", 0.000269],
  ["Cc1c[nH]c2ncnc(N3CC[C@](N)(CNC(=O)c4cc(F)ccc4F)C3)c12", "IC50", 0.015],
  ["Cc1c[nH]c2ncnc(N3CCC(N)(CNC(=O)c4ccccc4)C3)c12 (stereo not drawn)", "IC50", 0.0623],
  ["Cc1c[nH]c2ncnc(N3CC[C@](N)(CNC(=O)c4c(F)cccc4F)C3)c12", "IC50", 0.0199],
  ["CCc1c[nH]c2ncnc(N3CC[C@](N)(CNC(=O)c4cccc(Cl)c4)C3)c12", "IC50", 0.00447],
  ["N[C@]1(CNC(=O)c2cc(F)ccc2F)CCN(c2ncnc3[nH]cc(Cl)c23)C1", "IC50", 0.0025],
  ["N[C@]1(CNC(=O)c2ccc(F)cc2)CCN(c2ncnc3[nH]cc(Cl)c23)C1", "IC50", 0.00267],
  ["CCc1c[nH]c2ncnc(N3CC[C@](N)(CNC(=O)c4ccc(F)cc4)C3)c12", "IC50", 0.00191],
  ["CCc1c[nH]c2ncnc(N3CC[C@](N)(CNC(=O)c4ccccc4)C3)c12", "IC50", 0.0073],
  ["Cc1cccc(C(=O)NC[C@@]2(N)CCN(c3ncnc4[nH]cc(C)c34)C2)c1Cl", "IC50", 0.0135],
  ["Cc1c[nH]c2ncnc(N3CC[C@](N)(CNC(=O)c4cccc(F)c4F)C3)c12", "IC50", 0.00758],
  ["Cc1c[nH]c2ncnc(N3CC[C@](N)(CNC(=O)c4ccccc4Cl)C3)c12", "IC50", 0.00797],
  ["Cc1cccc(NC(=O)NCC2(N)CCN(c3ncnc4[nH]cc(C)c34)C2)c1C (stereo not drawn)", "IC50", 0.185],
  ["N[C@]1(CNC(=O)c2ccc(F)c(F)c2)CCN(c2ncnc3[nH]cc(Cl)c23)C1", "IC50", 0.00334],
  ["CCc1c[nH]c2ncnc(N3CC[C@](N)(CNC(=O)c4cccc(F)c4F)C3)c12", "IC50", 0.00278],
  ["N#Cc1c[nH]c2ncnc(N3CC[C@](N)(CNC(=O)c4ccc(F)cc4F)C3)c12", "IC50", 0.00771],
  ["Cc1c[nH]c2ncnc(N3CCC(N)(CNS(=O)(=O)c4ccccc4)C3)c12 (stereo not drawn)", "IC50", 0.177],
  ["CCc1c[nH]c2ncnc(N3CC[C@](N)(CNC(=O)c4cccc(F)c4Cl)C3)c12", "IC50", 0.0139],
  ["Cc1cccc(C(=O)NC[C@@]2(N)CCN(c3ncnc4[nH]cc(Cl)c34)C2)c1Cl", "IC50", 0.00785],
  ["N[C@]1(CNC(=O)c2ccc(Cl)c(F)c2)CCN(c2ncnc3[nH]cc(Cl)c23)C1", "IC50", 0.00915],
  ["N[C@]1(CNC(=O)c2cccc(F)c2F)CCN(c2ncnc3[nH]cc(Cl)c23)C1", "IC50", 0.00346],
  ["N[C@]1(CNC(=O)c2c(F)cccc2F)CCN(c2ncnc3[nH]cc(Cl)c23)C1", "IC50", 0.00906],
  ["Cc1c[nH]c2ncnc(N3CC[C@](N)(CNC(=O)c4c(F)ccc(F)c4F)C3)c12", "IC50", 0.0255],
  ["CCc1c[nH]c2ncnc(N3CC[C@](N)(CNC(=O)c4ccc(Cl)cc4)C3)c12", "IC50", 0.0018],
  ["Cc1ccccc1C(=O)NC[C@@]1(N)CCN(c2ncnc3[nH]cc(C)c23)C1", "IC50", 0.0362]
]}

This collection of values is drawn from patent US20080051419A1.
